Origin of values: patent US10221163B2

Here, each record is paired with measured Efflux ratio data.
test system: Pseudomonas aeruginosa MB9798 vs MB9799; conditions: ratio MITC95 PA_9798/MITC95 PA_9799
Give a plain numeric answer without units written out.

Completed entries (count: 3):
> print(dat)
                                   molecule  recorded.result
1  Nc1nc2c(-c3ccc(S(=O)(=O)N[C@H]4CN[C@@H](CO)C4)c(S(N)(=O)=O)c3-c3nnn[nH]3)cccc2s1             0.50
2  CC[C@@H](CN)NS(=O)(=O)c1ccc(-c2cccc3[nH]c(N)nc23)c(-c2nn[nH]n2)c1S(N)(=O)=O             4.00
3  Nc1ccc2cccc(-c3ccc(S(=O)(=O)N[C@@H]4CCNC4)c(S(N)(=O)=O)c3-c3nn[nH]n3)c2n1             1.25

Continue with the molecule presented below.
Input: Given NC[C@H](N)CNS(=O)(=O)c1ccc(-c2cnc(N)s2)c(-c2nn[nH]n2)c1S(N)(=O)=O , state its recorded Efflux ratio.
Output: 2.00

---

target: NDM-1 (Klebsiella pneumoniae); assay: biochemical; assay type: biochemical; conditions: fluorescence assay, CCF2-FA substrate, 1 pM enzyme, 2 hours at 25° C.; read-out: NDM-1 IC50
OBSERVABLE: pIC50
pIC50 is defined as minus the log10 of a concentration measured in mol/L.

Completed entries (count: 3):
> print(dat)
                                   compound  recorded.result
1  N[C@@H]1C=C(c2ccc(S(=O)(=O)N[C@@H]3CCNC3)c(S(N)(=O)=O)c2-c2nn[nH]n2)CCC1             8.20
2  Nc1nc2c(-c3ccc(S(=O)(=O)N[C@H]4CCNC4)c(S(N)(=O)=O)c3-c3nn[nH]n3)cc(F)cc2[nH]1            10.08
3  Nc1ncc(-c2ccc(S(=O)(=O)N[C@@H]3CNC[C@@H]3N)c(S(N)(=O)=O)c2-c2nn[nH]n2)s1             9.42

Input: Given Nc1nc2c(-c3ccc(S(=O)(=O)NCC4(O)CNC4)c(S(N)(=O)=O)c3-c3nn[nH]n3)cccc2s1 , state its recorded pIC50.
Output: 10.19

Input: Given NCCNS(=O)(=O)c1ccc(-c2cccc(C(=O)NC[C@@H](N)CO)c2N)c(-c2nn[nH]n2)c1S(N)(=O)=O , state its recorded pIC50.
Output: 9.18

Input: Given Nc1nc2c(-c3ccc(S(=O)(=O)NC[C@@H]4CCCN4)c(S(N)(=O)=O)c3-c3nnn[nH]3)cccc2s1.O=CO [Example 125, formate] , state its recorded pIC50.
Output: 10.33

Input: Given NCCNS(=O)(=O)c1ccc(-c2cccc(NC[C@H](O)CN)c2)c(-c2nn[nH]n2)c1S(N)(=O)=O , state its recorded pIC50.
Output: 8.87

---

system: Pseudomonas aeruginosa MB9798 vs MB9799; conditions: fold difference between efflux+ (MB9798) and efflux− (MB9799) strains; imipenem at 2 μg/mL
Here, each record is paired with measured Efflux ratio data.
Give a plain numeric answer without units written out.

Completed entries (count: 4):
> print(dat)
                                   compound                                   target    observable  recorded.result
1  Cc1cc(-c2ccc(S(=O)(=O)NC[C@H](O)CN)c(S(N)(=O)=O)c2-c2nn[nH]n2)cnc1N  Pseudomonas aeruginosa MB9798 vs MB9799  Efflux ratio             2.00
2  Nc1ccc(-c2ccc(S(=O)(=O)NCC3(O)CNC3)c(S(N)(=O)=O)c2-c2nn[nH]n2)cn1  Pseudomonas aeruginosa MB9798 vs MB9799  Efflux ratio             1.00
3  NCC(CN)NS(=O)(=O)c1ccc(-c2cccc(-c3cnc(N)[nH]3)n2)c(-c2nnn[nH]2)c1S(N)(=O)=O  Pseudomonas aeruginosa MB9798 vs MB9799  Efflux ratio             2.00
4  Nc1nc2c(-c3ccc(S(=O)(=O)N[C@@H]4CNC[C@H]4N)c(S(N)(=O)=O)c3-c3nn[nH]n3)cccc2[nH]1  Pseudomonas aeruginosa MB9798 vs MB9799  Efflux ratio             1.00

Input: Given NC[C@@H]1C[C@@H](NS(=O)(=O)c2ccc(-c3cccc4[nH]c(N)nc34)c(-c3nn[nH]n3)c2S(N)(=O)=O)CN1 , state its recorded Efflux ratio.
Output: 1.00

Input: Given NS(=O)(=O)c1c(S(=O)(=O)N[C@@H]2CCNC2)ccc(-c2cccc(Nc3nc(CO)cs3)c2)c1-c1nn[nH]n1 , state its recorded Efflux ratio.
Output: 2.00

Input: Given Nc1ccc(-c2ccc(S(=O)(=O)NC[C@H]3CCNC3)c(S(N)(=O)=O)c2-c2nn[nH]n2)cn1 , state its recorded Efflux ratio.
Output: 1.00

Input: Given NCC(CN)NS(=O)(=O)c1ccc(-c2cccc3sc(N)nc23)c(-c2nn[nH]n2)c1S(N)(=O)=O , state its recorded Efflux ratio.
Output: 1.00

Input: Given NCC(CN)NS(=O)(=O)c1ccc(-c2ccnc(N)c2)c(-c2nn[nH]n2)c1S(N)(=O)=O , state its recorded Efflux ratio.
Output: 2.00

Input: Given NC[C@H](CO)NS(=O)(=O)c1ccc(-c2cccc3nc(N)[nH]c23)c(-c2nn[nH]n2)c1S(N)(=O)=O , state its recorded Efflux ratio.
Output: 1.00

Input: Given NCCNS(=O)(=O)c1ccc(-c2ccccc2NC(=O)CN)c(-c2nn[nH]n2)c1S(N)(=O)=O , state its recorded Efflux ratio.
Output: 4.00

---

molecular target: NDM-1 (Klebsiella pneumoniae, UniProt C7C422); assay: biochemical; format: biochemical; conditions: fluorescence assay, CCF2-FA substrate, 1 pM enzyme, 2 hours at 25° C.; read-out: NDM-1 IC50
Sequence (C7C422 whole entry, looked up, species assumed): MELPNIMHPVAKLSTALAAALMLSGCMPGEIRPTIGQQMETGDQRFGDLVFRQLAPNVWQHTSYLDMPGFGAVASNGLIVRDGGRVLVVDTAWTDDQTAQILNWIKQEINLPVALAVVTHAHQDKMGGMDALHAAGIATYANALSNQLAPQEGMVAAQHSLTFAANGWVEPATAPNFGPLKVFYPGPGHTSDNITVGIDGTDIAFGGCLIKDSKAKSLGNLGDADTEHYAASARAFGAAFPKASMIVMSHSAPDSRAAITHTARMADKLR
Here, each record is paired with measured IC50 data.
Return type: number; implicit unit pM.

Completed entries (count: 2):
MOLECULE	DISPLAY_UNIT	RECORDED_RESULT
Nc1nc2c(-c3ccc(S(=O)(=O)N4CCOCC4)c(S(N)(=O)=O)c3-c3nnn[nH]3)cccc2s1	pM	1350
NCCCNS(=O)(=O)c1ccc(-c2cccc3[nH]cnc23)c(-c2nn[nH]n2)c1S(N)(=O)=O	pM	59.2

Input: Request body: readout IC50, system NDM-1 (Klebsiella pneumoniae, UniProt C7C422), query Nc1nc2c(-c3ccc(S(=O)(=O)N[C@@H]4CNC[C@@H]4F)c(S(N)(=O)=O)c3-c3nnn[nH]3)cccc2s1 . Return the value.
Output: 68.6

Input: Request body: readout IC50, system NDM-1 (Klebsiella pneumoniae, UniProt C7C422), query Cl.Cl.NCCCNS(=O)(=O)c1ccc(-c2ccc(N)nc2)c(-c2nn[nH]n2)c1S(N)(=O)=O . Return the value.
Output: 200

---

system: Serratia marcescens expressing IMP-1 (CL5741); assay type: cell-based; conditions: IMP-1 strain CL5741, with imipenem 1 μg/ml, 95% inhibition of growth
Here, each record is paired with measured Serratia marcescens MITC95 data.
Return type: number; implicit unit µM.

> print(dat)
                                smiles.data  recorded.result
1  NCC(CN)NS(=O)(=O)c1ccc(-c2ccc(N)nc2)c(-c2nn[nH]n2)c1S(N)(=O)=O           0.5859
2  NCCNC(=O)c1cc(-c2ccc(S(=O)(=O)NCCN)c(S(N)(=O)=O)c2-c2nn[nH]n2)ccc1N           0.7813
3  C[C@@H](N)CNS(=O)(=O)c1ccc(-c2ccc3nccn3c2)c(-c2nn[nH]n2)c1S(N)(=O)=O           0.7813

Input: Given Nc1ncc(-c2cc(-c3ccc(S(=O)(=O)N[C@@H]4CCNC4)c(S(N)(=O)=O)c3-c3nnn[nH]3)ccn2)[nH]1 , state its recorded Serratia marcescens MITC95.
Output: 1.563

---

target: NDM-1 (Klebsiella pneumoniae); assay: biochemical; type: biochemical; conditions: fluorescence assay, CCF2-FA substrate, 1 pM enzyme, 2 hours at 25° C.; read-out: NDM-1 IC50
# label = t if IC50 < 0.1 nM else f

Solved entries:
COMPOUND	LABEL_CLASS
CN1CCCC(NS(=O)(=O)c2ccc(-c3cccc4sc(N)nc34)c(-c3nnn[nH]3)c2S(N)(=O)=O)C1 (stereo not shown)	t
C[N+](C)(C)CCNS(=O)(=O)c1ccc(-c2cccc3sc(N)nc23)c(-c2nnn[nH]2)c1S(N)(=O)=O.O=C([O-])C(F)(F)F [Example 391, trifluoroacetate]	t
NCC(CN)NS(=O)(=O)c1ccc(-c2ccc(N)nc2)c(-c2nn[nH]n2)c1S(N)(=O)=O	f

Input: Is 0.1 nM strictly greater than the compound's reported IC50? compound: C[C@H](N)CC(=O)NS(=O)(=O)c1ccc(-c2cccc3[nH]c(N)nc23)c(-c2nn[nH]n2)c1S(N)(=O)=O
Output: f

Input: Is 0.1 nM strictly greater than the compound's reported IC50? compound: NCCNS(=O)(=O)c1ccc(-c2ccc3nccn3c2)c(-c2nn[nH]n2)c1S(N)(=O)=O
Output: f

Input: Is 0.1 nM strictly greater than the compound's reported IC50? compound: NC[C@H](N)CNS(=O)(=O)c1ccc(-c2cccc(-c3c[nH]c(N)n3)c2)c(-c2nn[nH]n2)c1S(N)(=O)=O
Output: f
